B1: EEHEE_rd4_0003 (parent)
chain: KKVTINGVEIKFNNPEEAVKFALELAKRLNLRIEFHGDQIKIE

Variants of: B1
Experiment Notes: folding stability dG (cDNA display proteolysis); higher = more stable
Experimental Conditions: PBS, room temperature

{"Variant Notation": "K20C", "folding stability dG (kcal/mol)": 3.78}
{"Variant Notation": "A22P", "folding stability dG (kcal/mol)": 0.416}
{"Variant Notation": "R28G", "folding stability dG (kcal/mol)": 1.91}
{"Variant Notation": "E43A", "folding stability dG (kcal/mol)": 2.59}
{"Variant Notation": "E17I", "folding stability dG (kcal/mol)": 2.36}
{"Variant Notation": "N14E", "folding stability dG (kcal/mol)": 1.86}
{"Variant Notation": "I42A", "folding stability dG (kcal/mol)": 1.29}
{"Variant Notation": "K41D", "folding stability dG (kcal/mol)": 1.91}
{"Variant Notation": "I5Y", "folding stability dG (kcal/mol)": 2.71}
{"Variant Notation": "N30V", "folding stability dG (kcal/mol)": 2.29}
{"Variant Notation": "G7K", "folding stability dG (kcal/mol)": 2.09}
{"Variant Notation": "N14M", "folding stability dG (kcal/mol)": 2.38}
{"Variant Notation": "E24N", "folding stability dG (kcal/mol)": 2.35}
{"Variant Notation": "H36S", "folding stability dG (kcal/mol)": 2.66}
{"Variant Notation": "V3N", "folding stability dG (kcal/mol)": 1.7}
{"Variant Notation": "L23R", "folding stability dG (kcal/mol)": 2.19}
{"Variant Notation": "I5C", "folding stability dG (kcal/mol)": 3.46}
{"Variant Notation": "E17Q", "folding stability dG (kcal/mol)": 2.48}
{"Variant Notation": "E43R", "folding stability dG (kcal/mol)": 2.64}
{"Variant Notation": "N6G", "folding stability dG (kcal/mol)": 2.5}
{"Variant Notation": "A18T", "folding stability dG (kcal/mol)": 1.88}
{"Variant Notation": "L25N", "folding stability dG (kcal/mol)": 1.32}
